Items are presented alongside their recorded Nav1.1 current amplification rate (%).
- system-name: human Nav1.1 (Homo sapiens)
- Construct: host or cells: HEK293
- method-summary: Amplification of Nav1.1-derived voltage-dependent sodium current (Nav1.1 current), cell line stably expressing human Nav1.1, automated patch clamp
- Type: cell-based
- experimental-setup: compound 3 μmol/L; HEK293 stably expressing human Nav1.1

compound	unit	Nav1.1 current amplification rate (%)
CC1CC=C(c2ccc(=O)n(CC(=O)N3CCc4c(C5CCN(C)C5)cccc43)n2)CC1 (mixture of isomers) [Example 269]	%	127
CC1CC=C(c2ccc(=O)n(CC(=O)N3CCc4c(C5CN(C)C5)cccc43)n2)CC1 (racemic) [Example 300]	%	140
CC1CC=C(c2ccc(=O)n(CC(=O)N3CCc4c(-c5ccnn5C)cccc43)n2)CC1 (racemic) [Example 251]	%	307
CC1CC=C(c2ccc(=O)n(CC(=O)N3C[C@H](C)N(c4cccnc4)C[C@H]3C)n2)CC1 (stereo partly drawn) [Example 417]	%	23
COc1cc(N2CCN(C(=O)Cn3nc(C4=CCC(C)CC4)ccc3=O)CC2)ccc1F (stereo not drawn) [Example 413]	%	27
CC1CC=C(c2ccc(=O)n(CC(=O)Nc3ccc4oc(CN5CCC5)nc4c3)n2)CC1 (racemic) [Example 333]	%	25
CC1CC=C(c2ccc(=O)n(CC(=O)N3CCc4c(C5CN(C6COC6)C5)cccc43)n2)CC1 (racemic) [Example 301]	%	410
CC1CC=C(c2ccc(=O)n(CC(=O)Nc3ccn4c(C5CC5)cnc4c3)n2)CC1 (racemic) [Example 335]	%	187
O=C(Cn1nc(C2=CCC3(CC2)CC3(F)F)ccc1=O)N1CCc2c(N3CCOCC3)cccc21 (racemic) [Example 478]	%	345
CC1(C)CC=C(c2ccc(=O)n(CC(=O)N3CCc4c(C5CN(C6COC6)C5)cccc43)n2)CC1 [Example 438]	%	404
CC1CC=C(c2ccc(=O)n(CC(=O)N3CCc4c(OCC(C)(C)O)cccc43)n2)CC1 (racemic) [Example 307]	%	320
CC1CC=C(c2ccc(=O)n(CC(=O)Nc3ccc4oc(CN(C)C)nc4c3)n2)CC1 (racemic) [Example 324]	%	50
CC1CC=C(c2ccc(=O)n(CC(=O)N3CCOc4c(-c5cn[nH]c5)cccc43)n2)CC1 (racemic) [Example 290]	%	94
CC1CC=C(c2ccc(=O)n(CC(=O)N3CCc4c(C5=CCN(C)C5)cccc43)n2)CC1 (racemic) [Example 267]	%	231
CC1CC=C(c2ccc(=O)n(CC(=O)N3CCc4cc(C5CN(C6COC6)C5)ccc43)n2)CC1 (racemic) [Example 318]	%	77

====

- system-name: human Nav1.5 (Homo sapiens)
- Construct: expressed in transfected cells; host or cells: CHO-K1 (T-REx System, ThermoFisher Scientific)
- Sequence (Q14524 1-2015 isoform Q14524-2): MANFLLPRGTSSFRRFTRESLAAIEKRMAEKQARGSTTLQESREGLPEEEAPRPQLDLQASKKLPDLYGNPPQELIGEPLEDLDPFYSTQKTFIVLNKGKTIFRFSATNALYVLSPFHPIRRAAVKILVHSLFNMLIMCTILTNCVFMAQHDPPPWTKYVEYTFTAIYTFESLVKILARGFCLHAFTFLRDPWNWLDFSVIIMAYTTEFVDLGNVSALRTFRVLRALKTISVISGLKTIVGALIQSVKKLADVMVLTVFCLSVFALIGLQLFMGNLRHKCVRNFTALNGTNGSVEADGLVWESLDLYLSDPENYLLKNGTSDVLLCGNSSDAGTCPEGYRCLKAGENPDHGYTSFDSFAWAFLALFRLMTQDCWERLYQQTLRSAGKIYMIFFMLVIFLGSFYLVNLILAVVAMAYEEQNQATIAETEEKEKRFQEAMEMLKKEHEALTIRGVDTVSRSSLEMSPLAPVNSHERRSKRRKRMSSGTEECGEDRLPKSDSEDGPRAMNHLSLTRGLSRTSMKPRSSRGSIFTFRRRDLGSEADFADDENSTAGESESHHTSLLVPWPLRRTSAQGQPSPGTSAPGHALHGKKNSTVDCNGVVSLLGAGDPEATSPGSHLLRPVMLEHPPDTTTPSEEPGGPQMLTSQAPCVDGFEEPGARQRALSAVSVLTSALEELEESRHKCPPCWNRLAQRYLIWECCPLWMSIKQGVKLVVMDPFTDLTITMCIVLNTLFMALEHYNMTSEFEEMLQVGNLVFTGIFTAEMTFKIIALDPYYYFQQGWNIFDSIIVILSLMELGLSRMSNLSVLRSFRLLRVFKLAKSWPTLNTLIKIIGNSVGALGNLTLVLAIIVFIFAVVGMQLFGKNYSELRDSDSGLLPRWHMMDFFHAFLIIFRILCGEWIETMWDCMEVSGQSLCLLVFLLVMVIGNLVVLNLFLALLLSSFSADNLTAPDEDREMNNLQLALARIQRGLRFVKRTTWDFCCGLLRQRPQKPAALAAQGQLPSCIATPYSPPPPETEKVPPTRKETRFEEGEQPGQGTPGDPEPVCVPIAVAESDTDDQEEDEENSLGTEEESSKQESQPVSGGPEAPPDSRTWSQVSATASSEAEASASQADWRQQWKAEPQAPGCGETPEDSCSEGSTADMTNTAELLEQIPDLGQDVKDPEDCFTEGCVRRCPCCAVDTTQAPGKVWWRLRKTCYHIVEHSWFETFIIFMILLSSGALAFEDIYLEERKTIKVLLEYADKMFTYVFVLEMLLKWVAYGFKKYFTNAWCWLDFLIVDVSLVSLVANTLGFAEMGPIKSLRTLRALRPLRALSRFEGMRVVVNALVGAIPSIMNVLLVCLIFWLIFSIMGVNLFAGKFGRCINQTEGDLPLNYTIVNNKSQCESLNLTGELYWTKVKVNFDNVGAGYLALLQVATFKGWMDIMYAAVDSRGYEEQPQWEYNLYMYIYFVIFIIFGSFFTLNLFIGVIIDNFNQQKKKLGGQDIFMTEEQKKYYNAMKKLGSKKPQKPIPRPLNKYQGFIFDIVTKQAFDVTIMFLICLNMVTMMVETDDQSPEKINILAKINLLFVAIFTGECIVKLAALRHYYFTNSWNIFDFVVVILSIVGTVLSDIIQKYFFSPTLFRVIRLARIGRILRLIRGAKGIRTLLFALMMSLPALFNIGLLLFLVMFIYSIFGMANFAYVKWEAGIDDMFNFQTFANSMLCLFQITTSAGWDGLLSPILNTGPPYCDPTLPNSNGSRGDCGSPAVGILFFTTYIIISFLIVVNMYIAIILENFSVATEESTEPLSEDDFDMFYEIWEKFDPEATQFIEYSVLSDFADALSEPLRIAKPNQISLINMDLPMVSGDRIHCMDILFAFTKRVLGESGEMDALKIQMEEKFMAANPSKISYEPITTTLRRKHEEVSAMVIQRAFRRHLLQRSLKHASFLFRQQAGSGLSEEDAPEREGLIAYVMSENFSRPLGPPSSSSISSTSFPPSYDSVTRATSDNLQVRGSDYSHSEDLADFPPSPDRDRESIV
- method-summary: Amplification of Nav1.5-derived voltage-dependent sodium current (Nav1.5 current), cell line stably expressing human Nav1.5, automated patch clamp
- Assay type: cell-based
- experimental-setup: 10 μmol/L compound; change of the area under the curve of Nav1.5 current (Test Result 1)
Label 1 (yes) when Nav1.5 current amplification rate (%) >= 20%; otherwise 0 (no).

compound	system-name	category-label
Cc1ccc(-c2ccc(=O)n(CC(=O)N3CCc4cc(N5CCOCC5)ccc43)n2)cc1 [Example 158]	human Nav1.5 (Homo sapiens)	1 (yes)
O=C(Cn1nc(C2=CCCCC2)ccc1=O)Nc1ccn2ccnc2c1 [Example 458]	human Nav1.5 (Homo sapiens)	0 (no)
CC1CC=C(c2ccc(=O)n(CC(=O)Nc3cc(F)c4ocnc4c3)n2)CC1 (racemic) [Example 241]	human Nav1.5 (Homo sapiens)	1 (yes)
CC1CCN(c2ccc(=O)n(CC(=O)Nc3ccn4ccnc4c3)n2)CC1 [Example 72]	human Nav1.5 (Homo sapiens)	0 (no)
CC1CC=C(c2ccc(=O)n(CC(=O)N3CC(C)N(c4cccnc4)C(C)C3)n2)CC1 (centres unmarked) [Example 416]	human Nav1.5 (Homo sapiens)	1 (yes)
CCc1nc2cc(NC(=O)Cn3nc(N4CCC(C)CC4)ccc3=O)ccc2o1 [Example 97]	human Nav1.5 (Homo sapiens)	0 (no)
CC1CC=C(c2ccc(=O)n(CC(=O)N3CCN(c4ccccn4)CC3)n2)CC1 (racemic) [Example 394]	human Nav1.5 (Homo sapiens)	0 (no)
CC1CC=C(c2ccc(=O)n(CC(=O)N3CCN(c4nccs4)CC3)n2)CC1 (centres unmarked) [Example 414]	human Nav1.5 (Homo sapiens)	0 (no)
Cc1noc2ccc(NC(=O)Cn3nc(C4=CCC(C)CC4)ccc3=O)cc12 (centres unmarked) [Example 423]	human Nav1.5 (Homo sapiens)	0 (no)
Cc1cncc(N2CCN(C(=O)Cn3nc(C4=CCC(C)(C)CC4)ccc3=O)CC2)c1 [Example 442]	human Nav1.5 (Homo sapiens)	1 (yes)
CC1CC=C(c2ccc(=O)n(CC(=O)N3CC4(C3)CN(c3cccnc3)C4)n2)CC1 (centres unmarked) [Example 424]	human Nav1.5 (Homo sapiens)	0 (no)
O=C(Cn1nc(C2=CCC(F)(F)CC2)ccc1=O)N1CCc2c(N3CCOCC3)cccc21 [Example 469]	human Nav1.5 (Homo sapiens)	1 (yes)
CC1CCN(c2ccc(=O)n(CC(=O)Nc3ccnc(C(F)(F)F)c3)n2)CC1 [Example 52]	human Nav1.5 (Homo sapiens)	0 (no)
CC1CC=C(c2ccc(=O)n(CC(=O)N3CC=C(c4cncnc4)CC3)n2)CC1 (racemic) [Example 398]	human Nav1.5 (Homo sapiens)	1 (yes)
CC1CC=C(c2ccc(=O)n(CC(=O)N3CCN(c4ccncc4)CC3)n2)CC1 (racemic) [Example 261]	human Nav1.5 (Homo sapiens)	0 (no)
Cc1noc2cc(NC(=O)Cn3nc(N4CCC(C)CC4)ccc3=O)ccc12 [Example 84]	human Nav1.5 (Homo sapiens)	1 (yes)
COc1ncc(C2=CCN(C(=O)Cn3nc(C4=CCC(C)CC4)ccc3=O)CC2)cn1 (racemic) [Example 400]	human Nav1.5 (Homo sapiens)	1 (yes)
